In this section, each of the variants is paired with its reported exon inclusion enrichment index.
B1: mRNA-splicing (parent)
chain: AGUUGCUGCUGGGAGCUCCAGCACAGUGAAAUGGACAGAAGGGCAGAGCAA

Variants of: B1
ASSAY: exon inclusion enrichment index; higher = more inclusion; WT1 exon 5 minigene, HEK293
Quick one: just the number, no unit, thanks!

MUTANT DESIGNATION | exon inclusion enrichment index
G5C C6A U7C G8A U10A A29U A30C | 0.0766
G5C C6U G8C C9U U10C G43U C44U | 0.567
G28C A29G | 0.405
G5A U7C G8A U10C G43A C44A | 3.99
C6A U7C C9A U10C A45U G46A | 2.51

Read the next record carefully.
stdin: # lookup: exon inclusion enrichment index of U3G G5U G8U C9U
stdout: 0.0452
